The measured values listed here are drawn from patent US9765060B2.

Recorded IC50, one value per entry.
- SYSTEM_UNDER_TEST: PI3K isoform δ (Homo sapiens (Human))
- Sequence (O00329 whole entry, canonical isoform): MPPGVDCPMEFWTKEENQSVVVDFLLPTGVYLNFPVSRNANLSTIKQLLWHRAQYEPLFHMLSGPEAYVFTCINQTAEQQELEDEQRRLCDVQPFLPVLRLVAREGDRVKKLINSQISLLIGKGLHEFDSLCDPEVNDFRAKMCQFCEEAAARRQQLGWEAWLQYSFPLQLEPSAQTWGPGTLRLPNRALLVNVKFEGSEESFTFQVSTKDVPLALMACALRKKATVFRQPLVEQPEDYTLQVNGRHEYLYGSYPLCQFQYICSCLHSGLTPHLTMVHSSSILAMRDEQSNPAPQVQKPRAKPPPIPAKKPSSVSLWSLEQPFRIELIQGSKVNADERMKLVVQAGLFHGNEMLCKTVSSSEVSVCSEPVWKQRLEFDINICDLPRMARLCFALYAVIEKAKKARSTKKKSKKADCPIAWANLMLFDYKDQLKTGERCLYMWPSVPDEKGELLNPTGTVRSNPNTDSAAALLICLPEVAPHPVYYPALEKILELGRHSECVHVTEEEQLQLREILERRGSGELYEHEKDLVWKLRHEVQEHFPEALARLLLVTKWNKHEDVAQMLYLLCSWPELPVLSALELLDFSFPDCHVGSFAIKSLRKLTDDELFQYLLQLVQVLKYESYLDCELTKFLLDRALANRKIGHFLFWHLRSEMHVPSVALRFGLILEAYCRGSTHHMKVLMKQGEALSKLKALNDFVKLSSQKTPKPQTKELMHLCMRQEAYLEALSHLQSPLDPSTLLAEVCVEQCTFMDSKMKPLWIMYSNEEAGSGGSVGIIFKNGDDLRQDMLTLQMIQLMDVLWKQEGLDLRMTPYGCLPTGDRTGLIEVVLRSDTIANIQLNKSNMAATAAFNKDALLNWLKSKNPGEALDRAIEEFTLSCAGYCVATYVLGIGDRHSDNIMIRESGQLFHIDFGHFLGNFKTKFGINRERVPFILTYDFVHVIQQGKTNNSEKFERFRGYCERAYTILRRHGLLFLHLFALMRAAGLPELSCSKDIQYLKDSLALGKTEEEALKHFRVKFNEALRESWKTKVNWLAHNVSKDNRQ
- Sequence (P27986 whole entry partner, canonical isoform): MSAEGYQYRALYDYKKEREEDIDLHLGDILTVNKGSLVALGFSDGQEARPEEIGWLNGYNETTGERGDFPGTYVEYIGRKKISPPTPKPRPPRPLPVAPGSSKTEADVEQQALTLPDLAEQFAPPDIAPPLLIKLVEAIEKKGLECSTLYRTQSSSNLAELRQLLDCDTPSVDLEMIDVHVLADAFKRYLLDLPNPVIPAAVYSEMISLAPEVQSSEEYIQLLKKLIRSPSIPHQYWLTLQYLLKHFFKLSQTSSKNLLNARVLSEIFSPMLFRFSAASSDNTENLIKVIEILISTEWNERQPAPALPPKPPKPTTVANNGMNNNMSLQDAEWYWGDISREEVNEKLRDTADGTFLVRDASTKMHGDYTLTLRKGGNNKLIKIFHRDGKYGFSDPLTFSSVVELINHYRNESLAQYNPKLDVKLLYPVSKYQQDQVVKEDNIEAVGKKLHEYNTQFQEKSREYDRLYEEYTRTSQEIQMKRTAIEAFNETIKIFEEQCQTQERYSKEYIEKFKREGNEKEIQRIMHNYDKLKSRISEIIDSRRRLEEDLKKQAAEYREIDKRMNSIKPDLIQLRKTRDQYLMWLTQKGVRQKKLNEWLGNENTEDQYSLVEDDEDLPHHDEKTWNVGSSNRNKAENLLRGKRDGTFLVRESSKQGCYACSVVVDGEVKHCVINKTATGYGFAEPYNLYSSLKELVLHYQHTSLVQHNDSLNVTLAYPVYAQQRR
- TEST_METHOD_NOTES: TR-FRET assay of enzymatic activity of class I PI3K isoforms
- COND: read-out: IC50 (nM) for PI3K isoform δ (Table 3); TR-FRET; 2× Km ATP, 2 μM PIP2; incubated for 30 minutes at 25° C.

COMPOUND: C[C@H](Nc1nc(N)nc(N)c1C#N)c1nc2cccc(OCC(=O)N3CCCCC3)c2c(=O)n1-c1ccccc1 [Compound 28]
READING_UNIT: nM
IC50: 2
//
COMPOUND: C[C@H](Nc1nc(N)nc(N)c1C#N)c1nc2cccc(OCC3(C)COC3)c2c(=O)n1-c1ccccc1 [Compound 34]
READING_UNIT: nM
IC50: 46
//
COMPOUND: CC(C)OC(=O)COc1cccc2nc([C@H](C)Nc3nc(N)nc(N)c3C#N)n(-c3ccccc3)c(=O)c12 [Compound 25]
READING_UNIT: nM
IC50: 36
//
COMPOUND: C[C@H](Nc1nc(N)nc(N)c1C#N)c1nc2cccc(SCCO)c2c(=O)n1-c1cccc(F)c1 [Compound 79]
READING_UNIT: nM
IC50: 51
//
COMPOUND: C[C@H](Nc1nc(N)nc(N)c1C#N)c1nc2cccc(OCCN3CCCC3=O)c2c(=O)n1-c1ccccc1 [Compound 26]
READING_UNIT: nM
IC50: 21
//
COMPOUND: N#Cc1c(N)nc(N)nc1N1CC[C@H]1c1nc2cccc(Cl)c2c(=O)n1-c1ccccc1 [Compound 68]
READING_UNIT: nM
IC50: 30
